Target: T1, human TREM2 (human, UniProt Q9NZC2 19-174, limits assumed)
T1 sequence: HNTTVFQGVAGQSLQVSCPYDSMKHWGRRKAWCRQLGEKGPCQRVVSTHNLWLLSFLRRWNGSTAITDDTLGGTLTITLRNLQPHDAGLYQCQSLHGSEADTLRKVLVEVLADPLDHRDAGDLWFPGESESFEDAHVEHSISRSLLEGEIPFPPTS
Test: yeast-displayed Fab FACS, 2nd screen 100 nM
Kindly state binding signal fold over 6E7 parental for each of the entries shown.
Answer with the figure and its unit, nothing else.

Q: Fill in binding signal fold over 6E7 parental for record V6 (Fab, V domains shown) VH: EVQLVQSGAEVKKPGESLKISCKGSGYSFTSMWIAWVRQMPGKGLEWMGIIYPGDSDTRYSPSFQGQVTISADKSISTAYLQWSSLKASDTAMYFCARQRTFYYDSSDYFDYWGQGTLVTVSS VL: DIQMTQSPSSVSASVGDRVTITCRASQGISSWLAWYQQKPGKAPKLLIYAASSLQNGVPSRFSGSGSGTDFTLTISSLQPEDFATYFCQQADSFPRTFGQGTKLEIK
A: 0.56 fold

Q: Please report binding signal fold over 6E7 parental for the following binder: V31 (Fab, V domains shown) VH: EVQLVQSGAEVKKPGESLKISCKGSGYSFTSYWIAWVRQMPGKGLEWMGIIYPGDSETRYSPSFQGQVTISADKSISTAYLQWSSLKASDTAMYFCARQRTFYYDSSDYFDYWGQGTLVTVSS VL: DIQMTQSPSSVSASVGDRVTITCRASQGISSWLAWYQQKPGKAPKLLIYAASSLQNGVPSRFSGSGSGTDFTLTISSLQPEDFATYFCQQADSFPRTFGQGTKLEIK
A: 0.73 fold

Q: Return binding signal fold over 6E7 parental (reported value) for this binder: V68 (Fab, V domains shown) VH: EVQLVQSGAEVKKPGESLKISCKGSGYSFTSYWIAWVRQMPGKGLEWMGIIYPGDSDTRYSPSFQGQVTISADKSISTAYLQWSSLKASDTAMYFCARQRTFRYDSSDYFDYWGQGTLVTVSS VL: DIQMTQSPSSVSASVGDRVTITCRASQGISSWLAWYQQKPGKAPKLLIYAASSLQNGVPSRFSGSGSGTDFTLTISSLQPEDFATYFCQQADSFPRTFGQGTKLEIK
A: 0.43 fold
